Target: ErbB2 WT (Homo sapiens (Human), UniProt P04626)
Sequence (P04626 23-1255): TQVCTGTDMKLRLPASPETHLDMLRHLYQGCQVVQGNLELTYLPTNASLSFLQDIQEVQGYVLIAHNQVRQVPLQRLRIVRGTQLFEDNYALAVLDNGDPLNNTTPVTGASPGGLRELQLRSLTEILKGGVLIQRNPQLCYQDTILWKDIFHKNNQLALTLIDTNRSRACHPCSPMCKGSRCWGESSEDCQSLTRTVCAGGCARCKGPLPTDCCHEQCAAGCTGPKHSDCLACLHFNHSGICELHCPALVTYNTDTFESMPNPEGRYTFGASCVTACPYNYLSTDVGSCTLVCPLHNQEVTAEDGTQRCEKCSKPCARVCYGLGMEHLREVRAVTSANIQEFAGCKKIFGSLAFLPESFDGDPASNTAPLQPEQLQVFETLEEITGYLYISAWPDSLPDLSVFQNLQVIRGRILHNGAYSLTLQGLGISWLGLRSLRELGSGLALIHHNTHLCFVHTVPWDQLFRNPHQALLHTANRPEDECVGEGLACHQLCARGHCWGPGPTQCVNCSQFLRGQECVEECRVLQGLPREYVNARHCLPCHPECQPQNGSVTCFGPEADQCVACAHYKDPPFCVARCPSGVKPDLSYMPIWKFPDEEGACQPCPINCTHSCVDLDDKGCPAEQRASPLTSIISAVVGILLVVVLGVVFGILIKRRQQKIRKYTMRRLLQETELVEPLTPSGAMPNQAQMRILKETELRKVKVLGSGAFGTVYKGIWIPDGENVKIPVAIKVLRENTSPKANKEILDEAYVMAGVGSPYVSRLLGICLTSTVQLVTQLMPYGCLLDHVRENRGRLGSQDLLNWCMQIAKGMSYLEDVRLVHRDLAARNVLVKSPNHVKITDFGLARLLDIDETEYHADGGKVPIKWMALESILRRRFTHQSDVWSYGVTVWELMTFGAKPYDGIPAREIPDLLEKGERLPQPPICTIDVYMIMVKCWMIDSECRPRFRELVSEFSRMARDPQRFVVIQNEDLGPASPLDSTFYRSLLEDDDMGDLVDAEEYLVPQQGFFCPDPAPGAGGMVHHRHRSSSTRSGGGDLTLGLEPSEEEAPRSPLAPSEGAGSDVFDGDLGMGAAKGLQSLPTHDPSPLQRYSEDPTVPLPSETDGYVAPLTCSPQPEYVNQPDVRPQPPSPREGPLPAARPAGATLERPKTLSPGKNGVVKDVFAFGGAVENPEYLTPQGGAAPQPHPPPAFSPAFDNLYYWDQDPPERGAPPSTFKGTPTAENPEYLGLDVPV
Observable: IC50 (nM)
Your answer is read as nM, so omit the unit and give the number.

QUERY: Find IC50 (ErbB2 WT (Homo sapiens (Human), UniProt P04626)) for the entry "Cc1cc(Nc2ncnc3cnc(N4CCC[C@@H]4C(C)(C)O)nc23)ccc1Oc1ccc2c(c1)ncn2C"
RESULT: 492

QUERY: Find IC50 (ErbB2 WT (Homo sapiens (Human), UniProt P04626)) for the entry "Cc1cc(Nc2ncnc3cnc(N4CC[C@@H](O)C4)nc23)ccc1Oc1ccc2c(c1)ncn2C"
RESULT: 11.2

QUERY: Find IC50 (ErbB2 WT (Homo sapiens (Human), UniProt P04626)) for the entry "Cc1cc(Nc2ncnc3cnc(N4CC5(C4)CC(O)(C(F)F)C5)nc23)ccc1Oc1ccc2c(c1)ncn2C"
RESULT: 30.2

QUERY: Find IC50 (ErbB2 WT (Homo sapiens (Human), UniProt P04626)) for the entry "CON1CCN(c2ncc3ncnc(Nc4ccc(Oc5ccc6c(c5)ncn6C)c(C)c4)c3n2)CC1"
RESULT: 94.2

----------
Kindly supply the reported pIC50 values for the records listed here.
Target: EGFR (Homo sapiens (Human))
Sequence (P00533 25-1210): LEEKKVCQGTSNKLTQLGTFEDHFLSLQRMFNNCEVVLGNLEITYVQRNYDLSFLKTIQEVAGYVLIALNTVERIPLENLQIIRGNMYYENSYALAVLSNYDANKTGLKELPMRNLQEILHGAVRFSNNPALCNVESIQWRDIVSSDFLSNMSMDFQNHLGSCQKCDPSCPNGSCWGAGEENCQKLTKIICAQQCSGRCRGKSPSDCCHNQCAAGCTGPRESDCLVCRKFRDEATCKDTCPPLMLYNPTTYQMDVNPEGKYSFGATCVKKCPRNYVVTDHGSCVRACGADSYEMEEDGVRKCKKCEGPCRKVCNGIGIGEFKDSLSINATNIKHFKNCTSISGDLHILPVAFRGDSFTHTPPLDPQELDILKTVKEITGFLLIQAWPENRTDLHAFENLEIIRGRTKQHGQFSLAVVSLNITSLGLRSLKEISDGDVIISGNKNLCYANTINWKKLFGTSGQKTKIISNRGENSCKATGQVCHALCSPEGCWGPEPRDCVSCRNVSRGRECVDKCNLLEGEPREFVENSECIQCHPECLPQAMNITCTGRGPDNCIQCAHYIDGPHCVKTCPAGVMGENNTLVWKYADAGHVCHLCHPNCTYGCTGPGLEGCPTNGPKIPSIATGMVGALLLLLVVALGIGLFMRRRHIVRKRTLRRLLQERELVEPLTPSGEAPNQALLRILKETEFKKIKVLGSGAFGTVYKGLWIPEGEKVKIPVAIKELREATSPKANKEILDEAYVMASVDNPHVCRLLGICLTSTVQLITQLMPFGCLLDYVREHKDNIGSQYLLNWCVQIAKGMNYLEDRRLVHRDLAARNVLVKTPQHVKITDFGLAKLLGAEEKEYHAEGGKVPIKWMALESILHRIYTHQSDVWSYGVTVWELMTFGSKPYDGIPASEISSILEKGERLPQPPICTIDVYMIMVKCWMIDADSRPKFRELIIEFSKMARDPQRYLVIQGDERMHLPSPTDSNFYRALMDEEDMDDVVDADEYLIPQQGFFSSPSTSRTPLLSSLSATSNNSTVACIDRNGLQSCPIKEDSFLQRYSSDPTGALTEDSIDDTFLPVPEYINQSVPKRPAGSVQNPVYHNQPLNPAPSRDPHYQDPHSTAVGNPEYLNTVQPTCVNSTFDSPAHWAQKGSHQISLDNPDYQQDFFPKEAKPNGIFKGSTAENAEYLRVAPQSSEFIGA
Assay summary: ErbB enzyme assay (CisBio HTRF KinEASE-TK), Assay 3
Assay type: biochemical
pIC50: −log10 of the molar value.

QUERY: Which pIC50 value belongs to Cc1cc(Nc2ncnc3cnc(N4CC[C@@](O)(C(F)F)C4)nc23)ccc1Oc1ccc2c(c1)ncn2C (racemic) [Example 106] ?
RESULT: 5.55

QUERY: Which pIC50 value belongs to Cc1c(Oc2ccn3ncnc3c2)ccc(Nc2ncnc3cnc(N4CC[C@@H](O)C4)nc23)c1F [Example 312] ?
RESULT: ≤ 5.00

QUERY: Which pIC50 value belongs to Cc1cc(Nc2ncnc3cnc(N4CCC5(CCOC5)C4)nc23)ccc1Oc1ccc2c(c1)ncn2C (stereo not shown) [Example 15] ?
RESULT: ≤ 5.00

QUERY: Which pIC50 value belongs to Cn1cnc2cc(Oc3ccc(Nc4ncnc5cnc(N6C[C@@H]7CC[C@H]6CO7)nc45)cc3Cl)ccc21 [Example 446] ?
RESULT: ≤ 5.00

QUERY: Which pIC50 value belongs to Cc1cc(Nc2ncnc3cnc(N4CCOC5(CC5)C4)nc23)ccc1Oc1ccc2c(c1)ncn2C [Example 58] ?
RESULT: ≤ 5.00

QUERY: Which pIC50 value belongs to Cc1cc(Nc2ncnc3cnc(N4CCC45COC5)nc23)ccc1Oc1ccn2ncnc2c1 [Example 369] ?
RESULT: 5.41

QUERY: Which pIC50 value belongs to Cc1cc(Nc2ncnc3cnc(N4C[C@H](O)C(F)(F)C4)nc23)ccc1Oc1ccc2c(c1)ncn2C [Example 170] ?
RESULT: ≤ 5.00

----------
Kindly supply the reported log10 of IC50 values for the records listed here.
Recorded IC50 (log10, nM)

QUERY: Find log10 of IC50 (ErbB2 WT (Homo sapiens (Human), UniProt P04626)) for the entry "Cc1cc(Nc2ncnc3cnc(N4C[C@]5(CCOC5)CC4=O)nc23)ccc1Oc1ccc2c(c1)ncn2C"
RESULT: 2.47

QUERY: Find log10 of IC50 (ErbB2 WT (Homo sapiens (Human), UniProt P04626)) for the entry Cc1cc(Nc2ncnc3cnc(N4CCOC(C(F)F)C4)nc23)ccc1Oc1ccc2c(c1)ncn2C (stereo not drawn)
RESULT: 2.23

QUERY: Find log10 of IC50 (ErbB2 WT (Homo sapiens (Human), UniProt P04626)) for the entry "Cc1c(Oc2ccn3ncnc3c2)ccc(Nc2ncnc3cnc(N[C@H]4CNC[C@H]4F)nc23)c1F"
RESULT: 1.94

QUERY: Find log10 of IC50 (ErbB2 WT (Homo sapiens (Human), UniProt P04626)) for the entry "CC1(O)CCN(c2ncc3ncnc(Nc4ccc(Oc5ccn6ncnc6c5)c(Cl)c4)c3n2)CC1"
RESULT: 1.52

QUERY: Find log10 of IC50 (ErbB2 WT (Homo sapiens (Human), UniProt P04626)) for the entry "Cc1ncc(-c2ncc3ncnc(Nc4ccc(Oc5ccc6c(c5)ncn6C)c(C)c4)c3n2)o1"
RESULT: 2.00

QUERY: Find log10 of IC50 (ErbB2 WT (Homo sapiens (Human), UniProt P04626)) for the entry "CSc1ncc2ncnc(Nc3ccc(Oc4ccc5c(c4)ncn5C)c(C)c3F)c2n1"
RESULT: 2.90

QUERY: Find log10 of IC50 (ErbB2 WT (Homo sapiens (Human), UniProt P04626)) for the entry "Cn1cnc2cc(Oc3ccc(Nc4ncnc5cnc(N6C[C@@H]7C[C@H]6C[C@H]7O)nc45)cc3Cl)ccc21"
RESULT: 1.58

QUERY: Find log10 of IC50 (ErbB2 WT (Homo sapiens (Human), UniProt P04626)) for the entry "Cc1cc(Nc2ncnc3cnc(NC4CC4)nc23)ccc1Oc1ccc2c(c1)ncn2C"
RESULT: 1.35

QUERY: Find log10 of IC50 (ErbB2 WT (Homo sapiens (Human), UniProt P04626)) for the entry "Cc1cc(Nc2ncnc3cnc(N4CC[C@H](OC(F)F)C4)nc23)ccc1Oc1ccn2ncnc2c1"
RESULT: 1.59

QUERY: Find log10 of IC50 (ErbB2 WT (Homo sapiens (Human), UniProt P04626)) for the entry "Cn1cnc2cc(Oc3ccc(Nc4ncnc5cnc(N6C[C@H]7CC[C@@H]6CO7)nc45)cc3Cl)ccc21"
RESULT: 1.80

QUERY: Find log10 of IC50 (ErbB2 WT (Homo sapiens (Human), UniProt P04626)) for the entry "Cc1cc(Nc2ncnc3cnc(N4CC[C@H](C(F)F)C4)nc23)ccc1Oc1ccc2c(c1)ncn2C"
RESULT: 2.38

QUERY: Find log10 of IC50 (ErbB2 WT (Homo sapiens (Human), UniProt P04626)) for the entry "Cc1cc(Nc2ncnc3cnc(OCC4(F)CNC4)nc23)ccc1Oc1ccc2c(c1)ncn2C"
RESULT: 2.65

QUERY: Find log10 of IC50 (ErbB2 WT (Homo sapiens (Human), UniProt P04626)) for the entry "[2H]C([2H])([2H])Nc1ncc2ncnc(Nc3ccc(Oc4ccc5c(c4)ncn5C)c(C)c3)c2n1"
RESULT: 1.36

QUERY: Find log10 of IC50 (ErbB2 WT (Homo sapiens (Human), UniProt P04626)) for the entry "Cc1cc(Nc2ncnc3cnc(N4CC5(C4)CC(C)(O)C5)nc23)ccc1Oc1ccc2c(c1)ncn2C"
RESULT: 0.72

QUERY: Find log10 of IC50 (ErbB2 WT (Homo sapiens (Human), UniProt P04626)) for the entry Cn1cnc2cc(Oc3ccc(Nc4ncnc5cnc(N6CCN7CCOC[C@H]7C6)nc45)cc3Cl)ccc21.O=C(O)C(F)(F)F.O=C(O)C(F)(F)F [Example 150, bis(2,2,2-trifluoroacetate)]
RESULT: 1.35
